Experiment: Beagle PK evaluation experiment
Assay type: in vivo
Conditions: dog, plasma, po (gavage), dose 1 mg/kg, n=3, read-out: tz1/2 po (terminal half-life) (converted)
Protocol: Test samples: the compounds of the present invention, prepared according to exemplary methods. Administration and Sample Collection: […] The concentrations of test samples were calculated by Analyst 1.6.3 from AB Sciex. Parameters such as mean, standard deviation and coefficient of variation (excluding those output directly by Analyst 1.6.3) were calculated by Microsoft Excel. PK parameters were calculated by Pharsight Phoenix 6.1 software NCA (Tmax was in median).
Property Name: half-life (h)

molecule_smiles=CC(C)n1cc(-c2ccc(F)cc2)c(=O)c(C(=O)Nc2ncc(Oc3ccnc(N)c3Cl)cn2)n1 property_name=half-life reported=1.24
molecule_smiles=Nc1nccc(Oc2ccc(NC(=O)c3nn(C4CC4)cc(-c4ccc(F)cc4)c3=O)nc2)c1Cl property_name=half-life reported=13.6
molecule_smiles=Nc1nccc(Oc2cnc(NC(=O)c3nn(C4CC4)cc(-c4ccc(F)cc4)c3=O)nc2)c1Cl property_name=half-life reported=2

(a) CC(C)n1cc(-c2ccc(F)cc2)c(=O)c(C(=O)Nc2ccc(Oc3ccnc(N)c3Cl)cn2)n1
(b) C=CCn1cc(-c2ccc(F)cc2)c(=O)c(C(=O)Nc2ccc(Oc3ccnc(N)c3Cl)cn2)n1
Q. Recorded half-life values differ for a and b ; which one is higher? Answer = label.
A. a
